target: HTR1D (Homo sapiens); construct: purchased Promega (in-house HiBiT-GPCR construct library, NanoBRET); assay: NanoBRET screen HiBiT-HTR1D in HEK293; type: binding; conditions: HTR1D; tracer 0.1μM
Sequence (P28221 whole entry): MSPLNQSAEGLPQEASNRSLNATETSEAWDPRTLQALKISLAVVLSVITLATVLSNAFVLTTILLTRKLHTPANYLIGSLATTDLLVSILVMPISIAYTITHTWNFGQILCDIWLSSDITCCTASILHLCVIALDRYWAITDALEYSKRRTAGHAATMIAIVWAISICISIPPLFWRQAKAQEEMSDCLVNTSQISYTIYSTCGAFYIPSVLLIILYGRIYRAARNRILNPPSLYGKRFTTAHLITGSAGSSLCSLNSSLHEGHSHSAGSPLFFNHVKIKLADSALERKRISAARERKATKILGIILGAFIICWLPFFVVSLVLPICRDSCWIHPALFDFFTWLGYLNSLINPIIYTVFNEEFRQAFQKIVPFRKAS
Label scheme for NanoBRET Fold Response: lower than 1 is N, 1 and above is Y.

compound: O=C(CCc1ccc2n1[B-](F)(F)[N+]1=C(c3ccc[nH]3)C=CC1=C2)NCc1ccc(C(=O)NCCOCCC(=O)N[C@@H]2CC[C@@]3(O)[C@H]4Cc5ccc(O)c6c5[C@@]3(CCN4CC3CC3)[C@H]2O6)cc1 [Naltrexone-3-NB590]
measured.on: HTR1D (Homo sapiens)
category: N
//
compound: O=C(CCOCCOCCOCCOCCNC(=O)CCc1ccc2n1[B-](F)(F)[N+]1=C(c3ccc[nH]3)C=CC1=C2)NCCCN1CCN(C2=Nc3ccccc3Oc3ccc(Cl)cc32)CC1
measured.on: HTR1D (Homo sapiens)
category: Y
//
compound: COc1ccccc1N1CCN(CCCCN2C(=O)c3ccc(CNC(=O)CCOCCNC(=O)c4ccc(CNC(=O)CCc5ccc6n5[B-](F)(F)[N+]5=C(c7ccc[nH]7)C=CC5=C6)cc4)cc3C2=O)CC1
measured.on: HTR1D (Homo sapiens)
category: Y
//
compound: COc1ccccc1N1CCN(CCCCN2C(=O)c3ccc(CNC(=O)CCOCCOCCOCCOCCNC(=O)CCc4ccc5n4[B-](F)(F)[N+]4=C(c6ccc[nH]6)C=CC4=C5)cc3C2=O)CC1
measured.on: HTR1D (Homo sapiens)
category: Y
//
compound: Cc1cc2c(s1)Nc1ccccc1N=C2N1CCN(CCCNC(=O)CCOCCOCCOCCOCCNC(=O)CCc2ccc3n2[B-](F)(F)[N+]2=C(c4ccc[nH]4)C=CC2=C3)CC1
measured.on: HTR1D (Homo sapiens)
category: Y

----------
target: OPRD1 (Homo sapiens, UniProt P41143); construct: purchased Promega (in-house HiBiT-GPCR construct library, NanoBRET); assay: NanoBRET screen HiBiT-OPRD1 in HEK293; assay type: binding; conditions: OPRD1; tracer 0.1μM
Sequence (P41143 whole entry): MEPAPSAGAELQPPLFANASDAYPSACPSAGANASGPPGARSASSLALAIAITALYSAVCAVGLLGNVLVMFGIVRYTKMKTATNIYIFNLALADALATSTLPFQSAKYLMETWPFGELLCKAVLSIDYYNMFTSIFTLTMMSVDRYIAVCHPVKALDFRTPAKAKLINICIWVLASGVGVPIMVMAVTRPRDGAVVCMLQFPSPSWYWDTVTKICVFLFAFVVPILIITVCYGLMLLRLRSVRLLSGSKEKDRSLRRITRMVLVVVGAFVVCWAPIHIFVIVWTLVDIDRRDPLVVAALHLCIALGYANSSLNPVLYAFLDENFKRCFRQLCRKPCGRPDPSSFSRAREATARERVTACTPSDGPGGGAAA
Label scheme for NanoBRET Fold Response: lower than 1 is not fulfilled, 1 and above is fulfilled.

molecule: Cc1cc2c(s1)Nc1ccccc1N=C2N1CCN(CCCNC(=O)CCOCCOCCOCCOCCNC(=O)CCc2ccc3n2[B-](F)(F)[N+]2=C(c4ccc[nH]4)C=CC2=C3)CC1
category: not fulfilled
//
molecule: COc1ccccc1N1CCN(CCCCN2C(=O)c3ccc(CNC(=O)CCOCCNC(=O)c4ccc(CNC(=O)CCc5ccc6n5[B-](F)(F)[N+]5=C(c7ccc[nH]7)C=CC5=C6)cc4)cc3C2=O)CC1
category: not fulfilled
//
molecule: N#CN=C(NCCCOc1cccc(CN2CCCCC2)c1)NCCNC(=O)CCOCCOCCOCCOCCNC(=O)CCc1ccc2n1[B-](F)(F)[N+]1=C(c3ccc[nH]3)C=CC1=C2
category: fulfilled
//
molecule: O=C(CCc1ccc2n1[B-](F)(F)[N+]1=C(c3ccc[nH]3)C=CC1=C2)NCc1ccc(C(=O)NCCOCCC(=O)N[C@@H]2CC[C@@]3(O)[C@H]4Cc5ccc(O)c6c5[C@@]3(CCN4CC3CC3)[C@H]2O6)cc1 [Naltrexone-3-NB590]
category: fulfilled

----------
molecular target: CCR3 (Homo sapiens); construct: purchased Promega (in-house HiBiT-GPCR construct library, NanoBRET); experiment: NanoBRET screen HiBiT-CCR3 in HEK293; type: binding; conditions: CCR3; tracer 1μM
Sequence (P51677 whole entry): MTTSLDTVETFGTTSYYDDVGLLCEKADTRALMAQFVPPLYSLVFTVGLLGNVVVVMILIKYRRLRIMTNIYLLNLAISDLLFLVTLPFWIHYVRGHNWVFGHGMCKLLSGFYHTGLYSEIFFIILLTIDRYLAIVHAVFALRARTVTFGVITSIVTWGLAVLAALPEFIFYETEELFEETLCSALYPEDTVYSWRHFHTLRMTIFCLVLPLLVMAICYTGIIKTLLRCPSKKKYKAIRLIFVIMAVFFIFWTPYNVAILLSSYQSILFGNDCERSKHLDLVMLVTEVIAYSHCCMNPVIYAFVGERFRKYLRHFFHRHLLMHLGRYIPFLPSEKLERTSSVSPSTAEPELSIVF
parameter.measured: NanoBRET Fold Response

compound: Cc1cc2c(s1)Nc1ccccc1N=C2N1CCN(CCCNC(=O)CCOCCOCCOCCOCCNC(=O)CCc2ccc3n2[B-](F)(F)[N+]2=C(c4ccc[nH]4)C=CC2=C3)CC1 [Olanzapine-a-2-NB590]
observed.measurement: 1.22

compound: O=C(CCc1ccc2n1[B-](F)(F)[N+]1=C(c3ccc[nH]3)C=CC1=C2)NCCOCCOCCNC(=O)OCCOCCN1CCN(C2=Nc3ccccc3Sc3ccccc32)CC1 [Quetiapine-a-2-NB590]
observed.measurement: 0.98

compound: N#CN=C(NCCCOc1cccc(CN2CCCCC2)c1)NCCNC(=O)CCOCCOCCOCCOCCNC(=O)CCc1ccc2n1[B-](F)(F)[N+]1=C(c3ccc[nH]3)C=CC1=C2 [Aminopotentidine-2-NB590]
observed.measurement: 0.89

----------
Biological target: ADRB2 (Homo sapiens, UniProt P07550)
Construct: purchased Promega (in-house HiBiT-GPCR construct library, NanoBRET)
Sequence (P07550 whole entry): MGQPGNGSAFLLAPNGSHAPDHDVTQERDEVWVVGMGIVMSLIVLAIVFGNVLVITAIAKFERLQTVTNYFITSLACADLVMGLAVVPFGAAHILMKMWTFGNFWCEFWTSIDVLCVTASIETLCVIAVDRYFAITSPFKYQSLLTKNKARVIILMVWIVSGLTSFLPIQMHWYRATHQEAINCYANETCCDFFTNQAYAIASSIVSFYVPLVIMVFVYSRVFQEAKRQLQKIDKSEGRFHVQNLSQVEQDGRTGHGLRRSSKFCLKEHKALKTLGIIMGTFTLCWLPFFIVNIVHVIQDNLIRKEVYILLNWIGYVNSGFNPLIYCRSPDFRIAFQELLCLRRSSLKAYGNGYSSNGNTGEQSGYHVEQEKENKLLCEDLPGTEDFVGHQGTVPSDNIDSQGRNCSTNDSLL
Assay: NanoBRET screen HiBiT-ADRB2 in HEK293
Format: binding
Settings: ADRB2; tracer 1μM
Experimental: Each tracer candidate was screened across the entire library of HiBiT-GPCR constructs using NanoBRET as the detection modality. As depicted in Figure 4A, the specificity of interactions was evaluated through decrease in BRET due to competitive displacement of a bound tracer by excess parental compound. Each tracer was analyzed for binding to each HiBiT-GPCR fusion in the absence and in the presence of competing parental compound. […]
parameter.measured: NanoBRET Fold Response

compound: COc1ccccc1N1CCN(CCCCN2C(=O)c3ccc(CNC(=O)CCOCCOCCOCCOCCNC(=O)CCc4ccc5n4[B-](F)(F)[N+]4=C(c6ccc[nH]6)C=CC4=C5)cc3C2=O)CC1
parameter.measured: NanoBRET Fold Response
observed.measurement: 1.66
--
compound: O=C(CCc1ccc2n1[B-](F)(F)[N+]1=C(c3ccc[nH]3)C=CC1=C2)NCCOCCOCCNC(=O)OCCOCCN1CCN(C2=Nc3ccccc3Sc3ccccc32)CC1
parameter.measured: NanoBRET Fold Response
observed.measurement: 0.97
--
compound: N#CN=C(NCCCOc1cccc(CN2CCCCC2)c1)NCCNC(=O)CCOCCOCCOCCOCCNC(=O)CCc1ccc2n1[B-](F)(F)[N+]1=C(c3ccc[nH]3)C=CC1=C2
parameter.measured: NanoBRET Fold Response
observed.measurement: 1.02
--
compound: Cc1cc2c(s1)Nc1ccccc1N=C2N1CCN(CCCNC(=O)CCOCCOCCOCCOCCNC(=O)CCc2ccc3n2[B-](F)(F)[N+]2=C(c4ccc[nH]4)C=CC2=C3)CC1
parameter.measured: NanoBRET Fold Response
observed.measurement: 1.15
--
compound: CCCn1c(=O)c2[nH]c(-c3ccc(OCC(=O)NCCNC(=O)CCOCCNC(=O)c4ccc(CNC(=O)CCc5ccc6n5[B-](F)(F)[N+]5=C(c7ccc[nH]7)C=CC5=C6)cc4)cc3)nc2n(CCC)c1=O
parameter.measured: NanoBRET Fold Response
observed.measurement: 1.10
--
compound: O=C(CCc1ccc2n1[B-](F)(F)[N+]1=C(c3ccc[nH]3)C=CC1=C2)NCc1ccc(C(=O)NCCOCCC(=O)N[C@@H]2CC[C@@]3(O)[C@H]4Cc5ccc(O)c6c5[C@@]3(CCN4CC3CC3)[C@H]2O6)cc1 [Naltrexone-3-NB590]
parameter.measured: NanoBRET Fold Response
observed.measurement: 0.89
--
compound: CC(C)N(CC[C@H](c1ccccc1)c1cc(CCNC(=O)c2ccc(CNC(=O)CCc3ccc4n3[B-](F)(F)[N+]3=C(c5ccc[nH]5)C=CC3=C4)cc2)ccc1O)C(C)C
parameter.measured: NanoBRET Fold Response
observed.measurement: 1.19
--
compound: CC(C)N(CC[C@H](c1ccccc1)c1cc(CCNC(=O)CCOCCOCCOCCOCCNC(=O)CCc2ccc3n2[B-](F)(F)[N+]2=C(c4ccc[nH]4)C=CC2=C3)ccc1O)C(C)C
parameter.measured: NanoBRET Fold Response
observed.measurement: 1.03
--
compound: COc1ccccc1N1CCN(CCCCN2C(=O)c3ccc(CNC(=O)CCOCCNC(=O)c4ccc(CNC(=O)CCc5ccc6n5[B-](F)(F)[N+]5=C(c7ccc[nH]7)C=CC5=C6)cc4)cc3C2=O)CC1
parameter.measured: NanoBRET Fold Response
observed.measurement: 1.45
--
compound: O=C(CCOCCOCCOCCOCCNC(=O)CCc1ccc2n1[B-](F)(F)[N+]1=C(c3ccc[nH]3)C=CC1=C2)NCCCN1CCN(C2=Nc3ccccc3Oc3ccc(Cl)cc32)CC1
parameter.measured: NanoBRET Fold Response
observed.measurement: 0.94
--
compound: Cc1nc2n(c(=O)c1CCN1CCC(c3noc4cc(F)ccc34)CC1)CCCC2OC(=O)NCCOCCOCCOCCOCCNC(=O)CCc1ccc2n1[B-](F)(F)[N+]1=C(c3ccc[nH]3)C=CC1=C2 (centres unmarked)
parameter.measured: NanoBRET Fold Response
observed.measurement: 0.98

----------
# NanoBRET Fold Response values compiled below
Molecular target: PTGFR (Homo sapiens)
Construct: purchased Promega (in-house HiBiT-GPCR construct library, NanoBRET)
Sequence (P43088 whole entry): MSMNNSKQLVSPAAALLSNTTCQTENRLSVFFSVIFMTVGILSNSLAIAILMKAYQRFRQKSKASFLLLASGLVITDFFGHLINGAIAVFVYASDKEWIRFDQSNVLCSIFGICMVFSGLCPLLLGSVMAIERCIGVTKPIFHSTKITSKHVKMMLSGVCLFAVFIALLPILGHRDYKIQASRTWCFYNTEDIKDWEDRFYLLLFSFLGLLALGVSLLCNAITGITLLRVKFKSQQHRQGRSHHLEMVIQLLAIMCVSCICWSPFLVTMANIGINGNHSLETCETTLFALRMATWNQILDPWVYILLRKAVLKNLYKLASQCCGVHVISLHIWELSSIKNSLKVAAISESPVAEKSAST
Experiment: NanoBRET screen HiBiT-PTGFR in HEK293
Type: binding
Settings: PTGFR; tracer 0.1μM
Procedure: Each tracer candidate was screened across the entire library of HiBiT-GPCR constructs using NanoBRET as the detection modality. As depicted in Figure 4A, the specificity of interactions was evaluated through decrease in BRET due to competitive displacement of a bound tracer by excess parental compound. Each tracer was analyzed for binding to each HiBiT-GPCR fusion in the absence and in the presence of competing parental compound. […]

structure.notation: CC(C)N(CC[C@H](c1ccccc1)c1cc(CCNC(=O)c2ccc(CNC(=O)CCc3ccc4n3[B-](F)(F)[N+]3=C(c5ccc[nH]5)C=CC3=C4)cc2)ccc1O)C(C)C
measured.on: PTGFR (Homo sapiens)
NanoBRET Fold Response: 0.99
--
structure.notation: N#CN=C(NCCCOc1cccc(CN2CCCCC2)c1)NCCNC(=O)CCOCCOCCOCCOCCNC(=O)CCc1ccc2n1[B-](F)(F)[N+]1=C(c3ccc[nH]3)C=CC1=C2
measured.on: PTGFR (Homo sapiens)
NanoBRET Fold Response: 0.99
--
structure.notation: CC(C)N(CC[C@H](c1ccccc1)c1cc(CCNC(=O)CCOCCOCCOCCOCCNC(=O)CCc2ccc3n2[B-](F)(F)[N+]2=C(c4ccc[nH]4)C=CC2=C3)ccc1O)C(C)C
measured.on: PTGFR (Homo sapiens)
NanoBRET Fold Response: 0.84
